Sourced from patent US12297194B2

target: Ba/F3 EGFR L858R/T790M/C797S mutants (Homo sapiens, UniProt P00533, T790M/C797S/L858R, cells depend on it); test: CellTiter-Glo cell viability, Ba/F3 EGFR L858R/T790M/C797S cells; assay type: cell-based, murine; conditions: 72 hours, read-out: Ba/F3 EGFR mutant cell (IC50, nM) L/T/C
Sequence (P00533 whole entry T790M/C797S/L858R): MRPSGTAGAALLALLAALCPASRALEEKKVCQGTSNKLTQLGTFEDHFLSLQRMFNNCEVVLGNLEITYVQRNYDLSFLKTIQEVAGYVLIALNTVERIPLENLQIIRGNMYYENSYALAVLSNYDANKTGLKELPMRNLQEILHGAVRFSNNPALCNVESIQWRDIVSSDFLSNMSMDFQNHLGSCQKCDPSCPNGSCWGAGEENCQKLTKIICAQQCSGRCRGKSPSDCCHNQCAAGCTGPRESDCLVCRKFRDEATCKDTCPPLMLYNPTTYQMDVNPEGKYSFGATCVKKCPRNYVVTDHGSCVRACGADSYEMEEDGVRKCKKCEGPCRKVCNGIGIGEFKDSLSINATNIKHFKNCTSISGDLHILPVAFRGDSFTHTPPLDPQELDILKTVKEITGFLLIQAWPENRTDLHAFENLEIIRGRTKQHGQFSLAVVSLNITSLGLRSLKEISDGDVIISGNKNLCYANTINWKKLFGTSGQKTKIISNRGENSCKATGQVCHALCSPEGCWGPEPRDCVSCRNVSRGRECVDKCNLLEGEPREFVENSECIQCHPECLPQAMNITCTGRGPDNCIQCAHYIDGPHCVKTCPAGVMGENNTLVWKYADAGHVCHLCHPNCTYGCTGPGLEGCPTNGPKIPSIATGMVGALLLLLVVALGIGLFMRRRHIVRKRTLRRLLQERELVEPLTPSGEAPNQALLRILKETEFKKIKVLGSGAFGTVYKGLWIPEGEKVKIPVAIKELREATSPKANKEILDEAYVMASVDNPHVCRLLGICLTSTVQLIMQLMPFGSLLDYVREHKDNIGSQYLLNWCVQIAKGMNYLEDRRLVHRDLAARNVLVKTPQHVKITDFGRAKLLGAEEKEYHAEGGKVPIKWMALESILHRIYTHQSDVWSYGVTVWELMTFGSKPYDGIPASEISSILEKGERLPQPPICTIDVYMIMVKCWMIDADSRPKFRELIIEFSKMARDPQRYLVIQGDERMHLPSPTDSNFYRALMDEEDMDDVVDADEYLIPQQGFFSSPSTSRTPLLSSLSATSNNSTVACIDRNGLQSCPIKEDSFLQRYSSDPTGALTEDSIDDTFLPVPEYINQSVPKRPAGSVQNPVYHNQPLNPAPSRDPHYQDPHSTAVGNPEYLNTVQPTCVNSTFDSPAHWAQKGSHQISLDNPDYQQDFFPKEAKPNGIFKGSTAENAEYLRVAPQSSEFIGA
Each record is given MET if its reported GI50 is strictly below 50 nM. Records at or above 50 nM are given NOT MET.

COc1ccc(Nc2nc(Nc3cc(C)c(N4CCC(N5CCN(C)CC5)CC4)cc3OC)ncc2Br)c(NS(C)(=O)=O)c1; MET
CCCc1cc(Nc2ncc(Br)c(Nc3ccc4nccnc4c3N(C)S(C)(=O)=O)n2)c(OC)cc1N1CCC(N(C)C)CC1; NOT MET
CCc1cc(Nc2ncc(Cl)c(Nc3ccc(OC)cc3NS(C)(=O)=O)n2)c(OC)cc1N1CCC(N2CCOCC2)CC1; MET

Okay, next one:
QUERY: For this compound, is GI50 lower than 50 nM? `COc1cc(N2CCC(N3CCN(C)CC3)CC2)c(C(F)(F)F)cc1Nc1ncc(Cl)c(Nc2ccc3nccnc3c2NS(C)(=O)=O)n1`
RESULT: NOT MET

###

target: Ba/F3 EGFR L858R/C797S mutants (Homo sapiens, UniProt P00533, C797S/L858R, cells depend on it); test: CellTiter-Glo cell viability, Ba/F3 EGFR L858R/C797S cells; format: cell-based, murine; details: 72 hours, read-out: Ba/F3 EGFR mutant cell (IC50, nM) L/C
Sequence (P00533 whole entry C797S/L858R): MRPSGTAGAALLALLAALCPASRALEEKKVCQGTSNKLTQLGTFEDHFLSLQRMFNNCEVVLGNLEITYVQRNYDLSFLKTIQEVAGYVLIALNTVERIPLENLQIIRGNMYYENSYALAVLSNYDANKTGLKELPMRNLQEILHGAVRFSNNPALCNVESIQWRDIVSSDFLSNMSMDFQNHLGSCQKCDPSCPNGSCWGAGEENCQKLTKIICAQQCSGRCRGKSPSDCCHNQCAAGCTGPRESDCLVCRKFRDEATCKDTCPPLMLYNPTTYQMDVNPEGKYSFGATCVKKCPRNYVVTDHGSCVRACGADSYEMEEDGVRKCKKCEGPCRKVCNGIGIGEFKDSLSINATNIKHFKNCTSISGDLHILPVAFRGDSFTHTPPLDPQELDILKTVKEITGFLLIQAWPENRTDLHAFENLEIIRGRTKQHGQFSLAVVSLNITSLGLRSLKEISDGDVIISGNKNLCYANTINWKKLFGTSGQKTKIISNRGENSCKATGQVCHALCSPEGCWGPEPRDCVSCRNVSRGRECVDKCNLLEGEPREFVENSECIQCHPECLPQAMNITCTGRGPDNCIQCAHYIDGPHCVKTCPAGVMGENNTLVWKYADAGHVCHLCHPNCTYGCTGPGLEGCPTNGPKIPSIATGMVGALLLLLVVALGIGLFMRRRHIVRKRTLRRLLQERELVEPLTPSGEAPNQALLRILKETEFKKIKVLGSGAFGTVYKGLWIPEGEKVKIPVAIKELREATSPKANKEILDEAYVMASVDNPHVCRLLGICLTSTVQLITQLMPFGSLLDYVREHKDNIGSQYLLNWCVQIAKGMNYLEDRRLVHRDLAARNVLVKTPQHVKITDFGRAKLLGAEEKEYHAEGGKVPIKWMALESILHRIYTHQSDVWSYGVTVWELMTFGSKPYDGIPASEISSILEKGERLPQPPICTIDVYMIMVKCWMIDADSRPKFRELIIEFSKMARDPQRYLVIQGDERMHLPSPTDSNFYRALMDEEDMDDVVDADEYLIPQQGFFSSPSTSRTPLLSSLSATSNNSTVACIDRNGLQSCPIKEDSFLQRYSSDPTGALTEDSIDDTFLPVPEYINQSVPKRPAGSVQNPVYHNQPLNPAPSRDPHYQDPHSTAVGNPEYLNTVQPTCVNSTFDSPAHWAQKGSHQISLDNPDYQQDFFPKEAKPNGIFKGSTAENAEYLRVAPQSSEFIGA
Rule: measured GI50 below 100 nM gets Criterion met; anything equal to or greater than 100 nM gets Criterion not met.

QUERY: hey, is GI50 for `CCCc1cc(Nc2ncc(Cl)c(Nc3cccc(OC)c3NS(C)(=O)=O)n2)c(OC)cc1N1CCC(N(C)C)CC1` lower than 100 nM or not?
RESULT: Criterion met

QUERY: Please let me know if CCc1cc(Nc2ncc(Br)c(Nc3ccc4nccnc4c3N(C)S(C)(=O)=O)n2)c(OC)cc1N1CC2CCC1CN2C(C)C (stereo not drawn) shows GI50 below 100 nM.
RESULT: Criterion met

QUERY: Lab log: compare recorded GI50 with 100 nM; is it strictly lower for `CCCc1cc(Nc2ncc(Cl)c(Nc3ccc4nccnc4c3NS(C)(=O)=O)n2)c(OC)cc1N1CCC(N(C)C)CC1` ?
RESULT: Criterion met

QUERY: Find out if reported GI50 for `CCS(=O)(=O)Nc1c(Nc2nc(Nc3cc(C)c(N4CCC(N5CCN(C)CC5)CC4)cc3OC)ncc2Br)ccc2nccnc12` is less than 100 nM
RESULT: Criterion not met

QUERY: Below 100 nM on GI50? Entry `COc1cc(N2CCC(N3CCN(C)C4(CC4)C3)CC2)ccc1Nc1ncc(Cl)c(Nc2ccc3nccnc3c2NS(C)(=O)=O)n1`
RESULT: Criterion not met

QUERY: A record lists CCc1cc(Nc2ncc(Cl)c(Nc3ccc4nccnc4c3NS(C)(=O)=O)n2)c(OC)cc1N1CC2CCC1CN2C(C)C (stereo not drawn) . Is its GI50 below 100 nM?
RESULT: Criterion met

###

target: Ba/F3 EGFR L858R/T790M/C797S mutants (Homo sapiens, UniProt P00533, T790M/C797S/L858R, cells depend on it); assay: CellTiter-Glo cell viability, Ba/F3 EGFR L858R/T790M/C797S cells; format: cell-based, murine; conditions: 72 hours, read-out: Ba/F3 EGFR mutant cell (IC50, nM) L/T/C
Measure Name: GI50 (nM)
// units = nM; emit number, no label

CCc1cc(Nc2ncc(Cl)c(Nc3ccc4c(c3N(C)S(C)(=O)=O)OCCO4)n2)c(OC)cc1N1CCC(N2CCOCC2)CC1 [Example C30]; 35
COc1cc(N2CCC(N3CCN(C)CC3)CC2)c(C)cc1Nc1ncc(F)c(Nc2ccc3nccnc3c2NS(C)(=O)=O)n1 [Example A22]; 369
CCc1cc(Nc2ncc(Cl)c(Nc3ccc4nccnc4c3N(C)S(C)(=O)=O)n2)c(OC)cc1N1CCC(N2CCOCC2)CC1 [Example A40]; 94

Proceed to the following item.
QUERY: Give the measured GI50 of COc1cc(C2CCN(C(C)=O)CC2)ccc1Nc1ncc(Cl)c(Nc2ccc3nccnc3c2NS(C)(=O)=O)n1 [Example B8] .
RESULT: 861
